# procedure_summary: Haemolytic activity in sheep erythrocytes at 50 ug/ml incubated for 2 hrs under shaking condition relative to control
# Type: ADME, cell-based, Ovis aries, Erythrocyte
# test_conditions: read-out: Activity
Could you please report measured hemolysis at 2 h, 50 ug/ml for the items listed next?
One number for each entry, in %.

Example results:
structure: CC(C)CCOc1ccc2ccccc2c1-c1c(OCC(=O)N[C@H](CCCCN)C(=O)N[C@H](CCCNC(=N)N)Cn2cc(CC3CCCCC3)nn2)ccc2ccccc12.Cl.Cl
hemolysis at 2 h, 50 ug/ml / %: 78

structure: CC(C)CCOc1ccccc1-c1ccccc1OCc1cn(C[C@@H](CCCCN)NC(=O)[C@@H](CCCNC(=N)N)n2cc(C3CCCCC3)nn2)nn1.Cl.Cl
hemolysis at 2 h, 50 ug/ml / %: 22.9

structure: CC(C)CCOc1ccccc1-c1ccccc1OCc1cn(C[C@@H](CCCNC(=N)N)NC(=O)OCc2ccccc2)nn1.Cl
hemolysis at 2 h, 50 ug/ml / %: 89.1

Next up:
Data request, read-out hemolysis at 2 h, 50 ug/ml, for CC(C)CCOc1ccc2ccccc2c1-c1c(OCc2cn(C[C@@H](CCCCN)NC(=O)[C@@H](CCCNC(=N)N)n3cc(CC4CCCCC4)nn3)nn2)ccc2ccccc12.Cl.Cl
88.8

---

# procedure_summary: Haemolytic activity in sheep erythrocytes at 5 ug/ml incubated for 2 hrs under shaking condition relative to control
# Format: ADME, cell-based, Ovis aries, Erythrocyte
# test_conditions: read-out: Activity
metric: hemolysis at 2 h, 5 ug/ml (%)
Answers are plain numbers, in %.

Example results:
structure: CC(C)CCOc1ccccc1-c1ccccc1OCc1cn(C[C@@H](CCCCN)NC(=O)[C@@H](CCCNC(=N)N)n2cc(C3CCCCC3)nn2)nn1.Cl.Cl
units_label: %
reported: 1.9
--
structure: CC(C)CCOc1ccccc1-c1ccccc1OCc1cn(C[C@@H](CCCCN)NC(=O)[C@@H](CCCNC(=N)N)NC(=O)Cc2ccccc2)nn1.Cl.Cl
units_label: %
reported: 0.6

Next up:
Data request, read-out hemolysis at 2 h, 5 ug/ml, for CC(C)CCOc1ccccc1-c1ccccc1OCc1cn(C[C@@H](CCCNC(=N)N)NC(=O)[C@@H](CCCCN)n2cc(CCc3ccccc3)nn2)nn1.Cl.Cl
1.7

---

# System: Acinetobacter baumannii
# procedure_summary: Antimicrobial activity against Acinetobacter baumannii ATCC 19606 incubated for 18 hrs by CLSI method
# Assay type: functional
# test_conditions: ATCC 19606 = CIP 70.34 = JCM 6841, 18 h
Could you please report measured MIC for the items listed next?
Numbers only, in µg/mL.

Example results:
structure: CC(C)CCOc1ccccc1-c1ccccc1OCc1cn(C[C@@H](CCCCN)NC(=O)[C@@H](CCCNC(=N)N)n2cc(CCc3ccccc3)nn2)nn1.Cl.Cl
MIC, µg/mL: 16
//
structure: CC(C)CCOc1ccc2ccccc2c1-c1c(OCc2cn(C[C@@H](CCCCN)NC(=O)[C@@H](CCCNC(=N)N)n3cc(CCc4ccccc4)nn3)nn2)ccc2ccccc12.Cl.Cl
MIC, µg/mL: 32
//
structure: CC(C)CCOc1ccccc1-c1ccccc1OCc1cn(C[C@@H](CCCNC(=N)N)NC(=O)[C@@H](CCCCN)n2cc(CCc3ccccc3)nn2)nn1.Cl.Cl
MIC, µg/mL: 16

Dear colleague, could you please provide MIC for the compounds listed below?
1. CC(C)CCOc1ccccc1-c1ccccc1OCc1cn(C[C@@H](CCCCN)NC(=O)Cc2ccccc2)nn1.Cl
2. CC(C)CCOc1ccccc1-c1ccccc1OCc1cn(C[C@@H](CCCCN)NC(=O)[C@@H](CCCNC(=N)N)n2cc(CC3CCCCC3)nn2)nn1.Cl.Cl

1. 32
2. 8

---

# Test system: Acinetobacter baumannii
# procedure_summary: Antimicrobial activity against Acinetobacter baumannii ATCC 19606 incubated for 18 hrs by CLSI method
# Assay type: functional
# test_conditions: ATCC 19606 = CIP 70.34 = JCM 6841, 18 h
Could you please report measured MIC for the items listed next?
Answers are plain numbers, in µg/mL.

structure: CC(C)CCOc1ccc2ccccc2c1-c1c(OCc2cn(C[C@@H](CCCCN)NC(=O)[C@@H](CCCNC(=N)N)NC(=O)Cc3ccccc3)nn2)ccc2ccccc12.Cl.Cl
reported: 32
--
structure: CC(C)CCOc1ccccc1-c1ccccc1OCc1cn(C[C@@H](CCCCN)NC(=O)[C@@H](CCCNC(=N)N)n2cc(Cc3ccccc3)nn2)nn1.Cl.Cl
reported: 8
--
structure: CC(C)CCOc1ccc2ccccc2c1-c1c(OCc2cn(C[C@@H](CCCCN)NC(=O)[C@@H](CCCNC(=N)N)NC(=O)CCc3ccccc3)nn2)ccc2ccccc12.Cl.Cl
reported: 32

Next up:
Data request, read-out MIC, for CC(C)CCOc1ccccc1-c1ccccc1OCc1cn(C[C@@H](CCCNC(=N)N)NC(=O)[C@@H](CCCCN)n2cc(C3CCCCC3)nn2)nn1.Cl.Cl
8

---

# procedure_summary: Haemolytic activity in sheep erythrocytes at 5 ug/ml incubated for 2 hrs under shaking condition relative to control
# Assay type: ADME, cell-based, Ovis aries, Erythrocyte
# test_conditions: read-out: Activity
metric: hemolysis at 2 h, 5 ug/ml (%)
One number for each entry, in %.

Example results:
structure: CC(C)CCOc1ccc2ccccc2c1-c1c(OCc2cn(C[C@@H](CCCNC(=N)N)NC(=O)Cc3ccccc3)nn2)ccc2ccccc12.Cl
hemolysis at 2 h, 5 ug/ml, %: 1
--
structure: CC(C)CCOc1ccc2ccccc2c1-c1c(OCc2cn(C[C@@H](CCCCN)NC(=O)[C@@H](CCCNC(=N)N)NC(=O)CCc3ccccc3)nn2)ccc2ccccc12.Cl.Cl
hemolysis at 2 h, 5 ug/ml, %: 1.1
--
structure: CC(C)CCOc1ccc2ccccc2c1-c1c(OCc2cn(C[C@@H](CCCCN)NC(=O)[C@@H](CCCNC(=N)N)n3cc(CC4CCCCC4)nn3)nn2)ccc2ccccc12.Cl.Cl
hemolysis at 2 h, 5 ug/ml, %: 1.6

Dear colleague, could you please provide hemolysis at 2 h, 5 ug/ml for the molecules listed below?
1. CC(C)CCOc1ccccc1-c1ccccc1OCc1cn(C[C@@H](CCCCN)NC(=O)CCc2ccccc2)nn1.Cl
2. CC(C)CCOc1ccccc1-c1ccccc1OCc1cn(C[C@@H](CCCNC(=N)N)NC(=O)OCc2ccccc2)nn1.Cl
3. CC(C)CCOc1ccccc1-c1ccccc1OCc1cn(C[C@@H](CCCCN)NC(=O)[C@@H](CCCNC(=N)N)n2cc(CC3CCCCC3)nn2)nn1.Cl.Cl

[0.2, 0.7, 1.5]

---

Could you please report measured MIC for the items listed next?
# Test system: Acinetobacter baumannii
# procedure_summary: Antimicrobial activity against Acinetobacter baumannii ATCC 19606 incubated for 18 hrs by CLSI method
# Type: functional
# test_conditions: ATCC 19606 = CIP 70.34 = JCM 6841, 18 h

Dear colleague, could you please provide MIC for the compounds listed below?
1. CC(C)CCOc1ccccc1-c1ccccc1OCc1cn(C[C@@H](CCCCN)NC(=O)[C@@H](CCCNC(=N)N)n2cc(C3CCCCC3)nn2)nn1.Cl.Cl
2. CC(C)CCOc1ccccc1-c1ccccc1OCc1cn(C[C@@H](CCCNC(=N)N)NC(=O)CCc2ccccc2)nn1.Cl
3. CC(C)CCOc1ccccc1-c1ccccc1OCc1cn(C[C@@H](CCCNC(=N)N)NC(=O)Cc2ccccc2)nn1.Cl
4. CC(C)CCOc1ccc2ccccc2c1-c1c(OCc2cn(C[C@@H](CCCNC(=N)N)NC(=O)CCc3ccccc3)nn2)ccc2ccccc12.Cl
5. CC(C)CCOc1ccccc1-c1ccccc1OCc1cn(C[C@@H](CCCCN)NC(=O)[C@@H](CCCNC(=N)N)NC(=O)OCC2c3ccccc3-c3ccccc32)nn1.Cl.Cl
6. CC(C)CCOc1ccc2ccccc2c1-c1c(OCc2cn(C[C@@H](CCCCN)NC(=O)CCc3ccccc3)nn2)ccc2ccccc12.Cl

1. 16 µg/mL
2. > 32 µg/mL
3. > 32 µg/mL
4. > 32 µg/mL
5. > 32 µg/mL
6. > 32 µg/mL

Data request, read-out MIC, for CC(C)CCOc1ccc2ccccc2c1-c1c(OCc2cn(C[C@@H](CCCNC(=N)N)NC(=O)Cc3ccccc3)nn2)ccc2ccccc12.Cl
> 32 µg/mL

---

# procedure_summary: Cytotoxicity against human HEK293 cells assessed as reduction in cell growth incubated for 20 hrs by resazurin dye-based fluorometric assay
metric: CC50 at 20 h (µg/mL)
Answers are plain numbers, in µg/mL.

structure: CC(C)CCOc1ccccc1-c1ccccc1OCc1cn(C[C@@H](CCCCN)NC(=O)[C@@H](CCCNC(=N)N)n2cc(C3CCCCC3)nn2)nn1.Cl.Cl
reported: 14.2

Dear colleague, could you please provide CC50 at 20 h for the molecules listed below?
1. CC(C)CCOc1ccc2ccccc2c1-c1c(OCc2cn(C[C@@H](CCCCN)NC(=O)CCc3ccccc3)nn2)ccc2ccccc12.Cl
2. CC(C)CCOc1ccc2ccccc2c1-c1c(OCc2cn(C[C@@H](CCCCN)NC(=O)[C@@H](CCCNC(=N)N)NC(=O)Cc3ccccc3)nn2)ccc2ccccc12.Cl.Cl

1: 3.5; 2: 12.1

Dear colleague, could you please provide CC50 at 20 h for the molecules listed below?
1. CC(C)CCOc1ccccc1-c1ccccc1OCc1cn(C[C@@H](CCCNC(=N)N)NC(=O)[C@@H](CCCCN)n2cc(C3CCCCC3)nn2)nn1.Cl.Cl
2. CC(C)CCOc1ccccc1-c1ccccc1OCc1cn(C[C@@H](CCCNC(=N)N)NC(=O)[C@@H](CCCCN)n2cc(Cc3ccccc3)nn2)nn1.Cl.Cl
3. CC(C)CCOc1ccccc1-c1ccccc1OCc1cn(C[C@@H](CCCNC(=N)N)NC(=O)[C@@H](CCCCN)n2cc(CCc3ccccc3)nn2)nn1.Cl.Cl
4. CC(C)CCOc1ccc2ccccc2c1-c1c(OCc2cn(C[C@@H](CCCNC(=N)N)NC(=O)CCc3ccccc3)nn2)ccc2ccccc12.Cl
5. CC(C)CCOc1ccccc1-c1ccccc1OCc1cn(C[C@@H](CCCCN)NC(=O)OCc2ccccc2)nn1.Cl
6. CC(C)CCOc1ccc2ccccc2c1-c1c(OCc2cn(C[C@@H](CCCCN)NC(=O)[C@@H](CCCNC(=N)N)NC(=O)CCc3ccccc3)nn2)ccc2ccccc12.Cl.Cl

1. 15.3
2. 17.8
3. 17.4
4. 15.9
5. 4.7
6. 27.4

Data request, read-out CC50 at 20 h, for CC(C)CCOc1ccccc1-c1ccccc1OCc1cn(C[C@@H](CCCCN)NC(=O)CCc2ccccc2)nn1.Cl
4.8
